B1: Osa-1-4 twister ribozyme (parent)
chain: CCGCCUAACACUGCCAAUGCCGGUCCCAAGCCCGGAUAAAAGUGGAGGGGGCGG

# Variants of: B1
# Assay: self-cleavage, relative activity (ratio to wild type); higher = more cleavage; co-transcriptional
Decide using self-cleavage: a value greater than or equal to 0.09 is 1 (yes), a smaller one is 0 (no).

QUERY: Could you verify whether the entry CCGCCUAACACUGCCAAUGCCGGUCCCAAGCCCGGCCAAAAGUGGAGGGGGCGG shows self-cleavage of no less than 0.09?
RESULT: 1 (yes)

QUERY: Reported self-cleavage reaches at least 0.09 for CCGCCUAACACUGCCAAUGCCUGUCUCAAGCCCGGAUAAAAGUGGAGGGGGCGG ?
RESULT: 1 (yes)

QUERY: I'd appreciate it if you could say whether CCGCCUAACGCUGCCAAUGACGGUCCCAAGCCCGGAUAAAAGUGGAGGGGGCGG has self-cleavage at least equal to 0.09.
RESULT: 1 (yes)

QUERY: Determine whether this variant has self-cleavage no lower than 0.09: CCGCCUAACACUGCCAAUGCCGGUCCCCAGCCCGGAUAAGAGUGGAGGGGGCGG
RESULT: 1 (yes)

QUERY: Please check the record CCGCCUAACACAGCCAAUGCCGGUCCCAAGCCCGGAUAAAAGUGUAGGGGGCGG and state if its self-cleavage is at or above 0.09.
RESULT: 0 (no)

QUERY: Item CCGCCUAUCACUGCCAAUGCCGGUCCCAAGCACGGAUAAAAGUGGAGGGGGCGG with self-cleavage of 0.09 or above?
RESULT: 0 (no)

QUERY: // inclusive: self-cleavage at least 0.09? input: CCGCCUAACACUGCCAAUGCCGGUGCCAAGCCCGGAGAAAAGUGGAGGGGGCGG
RESULT: 1 (yes)

QUERY: Hello, I need to know if CCGCCUAACACUGCCAAUGCCGGUCCCAAGCCCGGAUAAAGGAGGAGGGGGCGG has measured self-cleavage not below 0.09. Thanks!
RESULT: 1 (yes)

QUERY: Is the recorded value of self-cleavage equal to or greater than 0.09 for this variant? CCGCCUAACACUGCCAAUGCCGGUCCCAAGCCCGGAUAAAAGUGCAGGGAGCGG
RESULT: 0 (no)

QUERY: Given the entry CCGCCUAACACUGCCAAUGCCGGUCCCAAACCCGGAUAAAAGUGGAGGGGGCGC , answer whether its self-cleavage meets or surpasses 0.09.
RESULT: 0 (no)

QUERY: Does CCGCCUAACACUGCCAAUGCCCGUCCCAAGCCCGGAUAAAAGUGGAGAGGGCGG have a reported self-cleavage of at least 0.09?
RESULT: 0 (no)

QUERY: Identify whether the reported self-cleavage of the following variant is 0.09 or greater: CCGCCUAACACUGCCAAUGCAGGUCCAAAGCCCGGAUAAAAGUGGAGGGGGCGG
RESULT: 0 (no)

QUERY: Check if self-cleavage >= 0.09 (inclusive). Item: CCGCCUAAAACUGCCAAUGCCGGUCCCAAGCACGGAUAAAAGUGGAGGGGGCGG
RESULT: 0 (no)

QUERY: Given CCGCCUAACACUGCCAAUGCCGGUCCCAAGCACGGAUAAAAGUGGAGGGUGCGG , state whether its self-cleavage is at least 0.09.
RESULT: 0 (no)

QUERY: self-cleavage >= 0.09 for CCGCCUAACACUGCCAAUGCCGCUCCCAAGCCCGCAUAAAAGUGGAGGGGGCGG ?
RESULT: 0 (no)

QUERY: Tell me whether self-cleavage is at least 0.09 here: CCGCCUAACACUGCCAAUGCCGGUCCCAAGCCCGGAUAAAAGUGGAGGGAGAGG
RESULT: 1 (yes)

QUERY: Could you verify whether the entry CCGCCUAACACUGCCAAUGCCGGUCCCAAGCCCGGAUAACAGUGGAGGGGCCGG shows self-cleavage of no less than 0.09?
RESULT: 0 (no)

QUERY: Could you please find out whether CCGCCUAACACUGCCAAUGCCGGUCCCAAGCCAGGAUGAAAGUGGAGGGGGCGG has self-cleavage that meets 0.09 or exceeds it?
RESULT: 1 (yes)

QUERY: Does CCGCCUAACCCUGCCAAUGCCGGUCCCAAGCCCGGAUAAAAGAGGAGGGGGCGG have a reported self-cleavage of at least 0.09?
RESULT: 1 (yes)

QUERY: Confirm if self-cleavage reported for the variant CCGCCUAACACUGGCAAUGUCGGUCCCAAGCCCGGAUAAAAGUGGAGGGGGCGG is 0.09 or above.
RESULT: 1 (yes)

QUERY: Could you verify whether the entry CCGCCUAACACUGCCAAUGCCGGUCCCAAGCCUGGAUAUAAGUGGAGGGGGCGG shows self-cleavage of no less than 0.09?
RESULT: 1 (yes)

QUERY: Item CCGCCUAACACUGCCAAUGCCGGUCCCCAGCCCGGAUAAAAGUGGGGGGGGCGG with self-cleavage of 0.09 or above?
RESULT: 0 (no)

QUERY: Decide: self-cleavage of CCGCCUAACACUGCCAAUGCCGGUCCCAAGCCCGGAUAAAAGUGUAGGGGGAGG >= 0.09?
RESULT: 1 (yes)

QUERY: Record CCGCCUAACACUGCCAAUGCCGAUCCCAAGCCCGGAUAAAAGUGGAGGGGGCAG ; criterion: self-cleavage no lower than 0.09. Met?
RESULT: 1 (yes)

QUERY: hey, is self-cleavage for this one >= 0.09? CCGCCUAACACUGCUAAUGCCGGUCCCAAGCCCGGAUAAAAAUGGAGGGGGCGG
RESULT: 1 (yes)

QUERY: Reported self-cleavage at or above 0.09? CCGCCUAACACUGCCAAUGCCGGUCCCAAUCCCGGAUAAAAGUGGAGGGCGCGG
RESULT: 0 (no)

QUERY: Please indicate if the recorded self-cleavage for CCGCCUAACACCGCCAAUCCCGGUCCCAAGCCCGGAUAAAAGUGGAGGGGGCGG meets or exceeds 0.09.
RESULT: 0 (no)

QUERY: Decide: is the reported value of self-cleavage for CCGCCUAACACUGCCAAUGCCGGUCCCAAGCCCGGAUAGAAGUGGAGGGGGCGU equal to or greater than 0.09?
RESULT: 1 (yes)

QUERY: Is reported self-cleavage greater than or equal to 0.09 here: CCGCCUAACACUGCCAAUGCCGGUCCCAAGCCCUGAUAAAAGUGCAGGGGGCGG
RESULT: 0 (no)

QUERY: Is reported self-cleavage greater than or equal to 0.09 here: CCGCCUAACACUGCCAAUGCCGGUCUCAAGACCGGAUAAAAGUGGAGGGGGCGG
RESULT: 0 (no)

QUERY: Could you verify whether the entry CCGCCUAACACCGCCAAAGCCGGUCCCAAGCCCGGAUAAAAGUGGAGGGGGCGG shows self-cleavage of no less than 0.09?
RESULT: 1 (yes)

QUERY: # bool: self-cleavage of CCGCCUAACACUGCCAAGGCCGGUCCCAAGUCCGGAUAAAAGUGGAGGGGGCGG >= 0.09
RESULT: 1 (yes)

QUERY: Quick check, self-cleavage >= 0.09? CCGCCUAAUACUGCCAAUGCCGGUCCCAAGCCCGGAUAAAAGUGGACGGGGCGG
RESULT: 0 (no)

QUERY: // inclusive: self-cleavage at least 0.09? input: CCGCCUAACACUACCAAUGCAGGUCCCAAGCCCGGAUAAAAGUGGAGGGGGCGG
RESULT: 0 (no)

QUERY: State whether the measured self-cleavage reaches 0.09, counting equality as reaching it, for CCGCCUAACACCACCAAUGCCGGUCCCAAGCCCGGAUAAAAGUGGAGGGGGCGG
RESULT: 0 (no)

QUERY: Please check the record CCGCCUAACACUGCCAAUGCCGGUCCAAAACCCGGAUAAAAGUGGAGGGGGCGG and state if its self-cleavage is at or above 0.09.
RESULT: 0 (no)

QUERY: API: above_or_equal(metric=self-cleavage, cutoff=0.09) for item CCGCCUAACACUGCCAAUGCCGGUCACAAGCCCGGAUAAAAGUGGAGGGGGUGG
RESULT: 0 (no)

QUERY: Threshold query (self-cleavage >= 0.09) on CCGCCUAACACUGCCAAUGCUGGUCCCAAGCCCGGAUAAAACUGGAGGGGGCGG
RESULT: 1 (yes)
